Cited source: patent US4156724A

Tested on: Proteus vulgaris HX 19
Experiment: Minimum Inhibitory Concentration, Proteus vulgaris HX 19
Type: cell-based
Conditions: HX19; Proteus vulgaris HX 19; read-out: Minimum Inhibitory Concentration
Catalogue of MIC values
Please answer in the form of a number followed by its unit of measurement.

> print(dat)
                                   compound  experimental.readout   obs.value
1  COc1ccc2ncc(C(=O)NC(C(=O)NC3C(=O)N4C(C(=O)O)=C(CSc5nnc(CO)s5)CSC34)c3ccc(O)cc3)c(O)c2n1 (stereo not drawn)                   MIC   0.2 µg/mL
2  O=C(O)C1=C(CSc2nnc(CO)s2)CSC2C(NC(=O)C(NC(=O)c3cnccc3O)c3ccc(O)c(O)c3)C(=O)N12 (stereo not drawn)                   MIC  0.78 µg/mL
3  CC(=O)OCC1=C(C(=O)O)N2C(=O)[C@@H](NC(=O)[C@H](NC(=O)c3nnc4ccccc4c3O)c3ccc(NC(N)=O)cc3)[C@H]2SC1                   MIC  0.39 µg/mL
4  Cn1nnnc1SCC1=C(C(=O)O)N2C(=O)C(NC(=O)C(NC(=O)c3cnccc3O)c3ccc(O)c(F)c3)C2SC1 (stereo not drawn)                   MIC  0.39 µg/mL
5  CC(=O)OCC1=C(C(=O)O)N2C(=O)C(NC(=O)C(NC(=O)c3ccnnc3O)c3ccc(CO)cc3)C2SC1 (stereo not drawn)                   MIC  0.39 µg/mL

Now for another entry.
GET /values?readout=MIC&system=Proteus vulgaris HX 19&item= CSc1nc(O)c2c(O)c(C(=O)NC(C(=O)NC3C(=O)N4C(C(=O)O)=C(CSc5nnnn5C)CSC34)c3ccc(O)cc3)cnc2n1 (stereo not drawn)
1.56 µg/mL
